assay: Toxicity in KM mouse assessed as mouse survival at 820 mg/kg, po administered as single dose measured daily for 14 days (reference value: 100%); assay type: organism-based; conditions: in vivo
Readout type: survival at 336 h (%)
Write the number in % without appending the unit.

Item under review: COc1cc2c(cc1OC)Nc1ncnc(Oc3ccc(NC(=O)C4(C(=O)Nc5ccc(F)cc5)CC4)cc3F)c1NC2 . Reported survival at 336 h?
60

###

Readout type: pIC50
Recall that pIC50 is obtained by taking minus log10 of the concentration measured in molar.

Recorded pIC50 for COc1cc2c(cc1OC)Nc1ncnc(Oc3ccc(NC(=O)C4(C(=O)Nc5ccc(F)cc5)CC4)cc3F)c1NC2 with Proto-oncogene tyrosine-protein kinase receptor Ret (Homo sapiens), please?
6.79

###

assay: Tmax in Sprague-Dawley rat at 20 mg/kg, po measured after 5 mins to 4 hrs post dose by LC-MS/MS method; assay type: ADME, organism-based; conditions: in vivo
Readout type: Tmax (h)
A number alone suffices; assume h.

If you can, please state the reported Tmax value of COc1cc2c(cc1OC)Nc1ncnc(Oc3ccc(NC(=O)C4(C(=O)Nc5ccc(F)cc5)CC4)cc3F)c1NC2 .
1.67

###

experiment: Toxicity in KM mouse assessed as mouse survival at 420 mg/kg, po administered as single dose measured daily for 14 days (reference value: 100%); type: organism-based; conditions: in vivo
Readout type: survival at 336 h
Output should be the measured figure followed by the unit it is expressed in.

Look at this compound and give its reported survival at 336 h. COc1cc2c(cc1OC)Nc1ncnc(Oc3ccc(NC(=O)C4(C(=O)Nc5ccc(F)cc5)CC4)cc3F)c1NC2
100%

###

experiment: Cmax in Sprague-Dawley rat at 4 mg/kg, iv measured after 5 mins to 4 hrs post dose by LC-MS/MS method; type: ADME, organism-based; design: dose 4 mg/kg, route intravenous; settings: in vivo
Readout type: Cmax (ng/mL)
Could you give me the number in ng/mL? Just the number is fine.

Request the reported Cmax associated with COc1cc2c(cc1OC)Nc1ncnc(Oc3ccc(NC(=O)C4(C(=O)Nc5ccc(F)cc5)CC4)cc3F)c1NC2
4660

###

experiment: Apparent clearance during terminal phase in Sprague-Dawley rat at 20 mg/kg, po measured after 5 mins to 4 hrs post dose by LC-MS/MS method; format: ADME, organism-based; details: in vivo, read-out: CLz/F (converted)
Readout type: CL/F (mL/min/kg)
Express your answer in mL/min/kg, writing the number without its unit.

Endpoint output: CL/F of COc1cc2c(cc1OC)Nc1ncnc(Oc3ccc(NC(=O)C4(C(=O)Nc5ccc(F)cc5)CC4)cc3F)c1NC2 . Value?
48.8

###

assay: Oral bioavailability in Sprague-Dawley rat at 20 mg/kg measured after 5 mins to 4 hrs post dose by LC-MS/MS method; assay type: ADME, organism-based; details: in vivo
Readout type: bioavailability (%)
Express your answer in %, writing the number without its unit.

GET /values?readout=bioavailability&item= COc1cc2c(cc1OC)Nc1ncnc(Oc3ccc(NC(=O)C4(C(=O)Nc5ccc(F)cc5)CC4)cc3F)c1NC2
39

###

experiment: AUC (0 to t) in Sprague-Dawley rat at 4 mg/kg, iv measured after 5 mins to 4 hrs post dose by LC-MS/MS method; assay type: ADME, organism-based; parameters: time 0.083-4 hr, dose 4 mg/kg, route intravenous; details: in vivo
Readout type: AUC(0-t) (ng·h/mL)
Supply the numeric figure in ng·h/mL, leaving out any unit text.

Consider the compound shown here: COc1cc2c(cc1OC)Nc1ncnc(Oc3ccc(NC(=O)C4(C(=O)Nc5ccc(F)cc5)CC4)cc3F)c1NC2 What is its recorded AUC(0-t)?
3590
